# RUN_DESCRIPTION: in vitro
# CONDITION_CONTEXT: human
VALUE_KIND: CC50 at 3 days (µM)
Report as a plain number; the unit µM is understood.

C[C@@H]1c2ccccc2CCN1C(=O)c1cc(C2CC2)n2c(F)c(-c3ccc([C@H]4C[C@H]4C(=O)O)cc3F)nc2n1 (mixture of isomers) [Compound 26]	77.2

IN: Name the recorded CC50 at 3 days for CCc1cc(C(=O)N2CCc3ccccc3[C@H]2C)c(C)c2cc(-c3ccc(N4CC[C@H](C(=O)O)C4)cc3F)nn12 [Compound 9] .
OUT: 50.6

###

# RUN_DESCRIPTION: in vitro
# CONDITION_CONTEXT: human
Collected CC50 at 3 days values appear next to each entry.

IN: Name the recorded CC50 at 3 days for C[C@@H]1c2ccccc2CCN1C(=O)c1cc(C2CC2)n2c(F)c(-c3ccc([C@@H]4C[C@H]4C(=O)O)cc3F)nc2n1 (mixture of isomers) .
OUT: 22.3 µM

IN: Would you mind doing C[C@@H]1c2ccccc2CCN1C(=O)c1cc(C2CC2)n2nc(-c3ccc(C4C[C@H]4C(=O)O)cc3F)cc2c1F (relative stereo) as well?
OUT: 50.2 µM

IN: Would you mind doing CCc1cc(C(=O)N2CCc3ccccc3[C@H]2C)cc2cc(-c3ccc(N4CC[C@H](C(=O)O)C4)cc3F)cn12 as well?
OUT: 44 µM

IN: Would you mind doing CCc1cc(C(=O)N2CCc3ccccc3[C@H]2C)cc2cc(-c3ccc([C@H]4C[C@@H]4C(=O)O)cc3F)cn12 as well?
OUT: 45.1 µM

IN: Would you mind doing CNC(=O)[C@H]1CCN(c2ccc(-c3cc4cc(C(=O)N5CCc6ccccc6[C@H]5C)nc(C5CC5)n4n3)c(F)c2)C1 as well?
OUT: > 100 µM

IN: Would you mind doing C[C@@H]1c2ccccc2CCN1C(=O)c1cc(C2CC2)n2cc(-c3ccc(N4CC[C@H](C(=O)O)C4)cc3F)nc2n1 as well?
OUT: 40.4 µM

IN: Would you mind doing C[C@@H]1c2ccccc2CCN1C(=O)c1cc(C2CC2)n2nc(-c3ccc(N4CC[C@H](C(N)=O)C4)cc3F)cc2c1 as well?
OUT: 53.4 µM

###

# System: rgRSV224 virus
# RUN_DESCRIPTION: Antiviral activity: rgRSV224 (GFP) replication in HeLa cells
# CONDITION_CONTEXT: human respiratory syncytial virus, 72 h, read-out: RSV HELA EC50
Collected EC50 values appear next to each entry.
Report as a plain number; the unit µM is understood.

Past entries and their recorded results:
CCc1cc(C(=O)N2CCc3ccccc3[C@H]2C)cc2cc(-c3ccc(N4CC[C@H](C(=O)O)C4)cc3F)cn12 [Compound 3]	0.218
C[C@@H]1c2ccccc2CCN1C(=O)c1cc(C2CC2)n2c(F)c(-c3ccc([C@H]4C[C@H]4C(=O)O)cc3F)nc2n1 (mixture of isomers) [Compound 26]	3.42

IN: Name the recorded EC50 for C[C@@H]1c2ccccc2CCN1C(=O)c1cc(C2CC2)n2nc(-c3ccc(N4CC[C@H](C(=O)O)C4)cc3F)cc2c1 [Compound 7] .
OUT: 0.064

###

Collected pEC50 values appear next to each entry.
# System: rgRSV224 virus
# RUN_DESCRIPTION: Antiviral activity: rgRSV224 (GFP) replication in HeLa cells
# CONDITION_CONTEXT: human respiratory syncytial virus, 72 h, read-out: RSV HELA EC50
Give only the number. pEC50 is defined as minus log10 of concentration in molar units.

Past entries and their recorded results:
C[C@@H]1c2ccccc2CCN1C(=O)c1cc(C2CC2)n2nc(-c3ccc(C4C[C@@H]4C(=O)O)cc3F)nc2c1 (relative stereo)	5.70
C[C@@H]1c2ccccc2CCN1C(=O)c1cc2cc(-c3ccc(N4CC[C@H](C(N)=O)C4)cc3F)nn2c(C2CC2)n1	6.06
C[C@@H]1c2ccccc2CCN1C(=O)c1cc(C2CC2)n2nc(-c3ccc(N4CC[C@H](C(N)=O)C4)cc3F)cc2c1F	7.21
C[C@@H]1c2ccccc2CCN1C(=O)c1cc(C2CC2)n2cc(-c3ccc(N4CC[C@H](C(=O)O)C4)cc3F)nc2n1	6.80
C[C@@H]1c2ccccc2CCN1C(=O)c1cc(C2CC2)n2nc(-c3ccc(C4C[C@H]4C(=O)O)cc3F)cc2c1F (relative stereo)	7.05

Alright, here's another compound for you.
IN: Name the recorded pEC50 for CNC(=O)[C@H]1CCN(c2ccc(-c3cc4cc(C(=O)N5CCc6ccccc6[C@H]5C)nc(C5CC5)n4n3)c(F)c2)C1 .
OUT: 6.05

###

# Tested on: rgRSV224 virus
# RUN_DESCRIPTION: Antiviral activity: rgRSV224 (GFP) replication in HeLa cells
# CONDITION_CONTEXT: human respiratory syncytial virus, 72 h, read-out: RSV HELA EC50
VALUE_KIND: EC50 (µM)
Report as a plain number; the unit µM is understood.

Past entries and their recorded results:
C[C@@H]1c2ccccc2CCN1C(=O)c1cc(C2CC2)n2cc(-c3ccc(N4CC[C@H](C(N)=O)C4)cc3F)nc2n1 [Compound 28]	0.112
C[C@@H]1c2ccccc2CCN1C(=O)c1cc(C2CC2)n2nc(-c3ccc(C4C[C@H]4C(=O)O)cc3F)nc2c1 (relative stereo) [Compound 16]	0.182

IN: Query the reported EC50 for rgRSV224 virus; item: CCc1cc(C(=O)N2CCc3ccccc3[C@H]2C)cc2cc(-c3ccc([C@H]4C[C@@H]4C(=O)O)cc3F)cn12 [Compound 1]
OUT: 0.195

IN: Would you mind doing CCc1cc(C(=O)N2CCc3ccccc3[C@H]2C)cc2cc(-c3ccc(C4C[C@H]4C(=O)O)cc3F)nn12 (relative stereo) [Compound 4] as well?
OUT: 0.219

###

# System: rgRSV224 virus
# RUN_DESCRIPTION: Antiviral activity: rgRSV224 (GFP) replication in HeLa cells
# CONDITION_CONTEXT: human respiratory syncytial virus, 72 h, read-out: RSV HELA EC50
VALUE_KIND: pEC50
Give only the number. pEC50 is defined as minus log10 of concentration in molar units.

Past entries and their recorded results:
CCc1cc(C(=O)N2CCc3ccccc3[C@H]2C)c(C)c2cc(-c3ccc(N4CC[C@H](C(=O)O)C4)cc3F)nn12	6.22
CCc1cc(C(=O)N2CCc3ccccc3[C@H]2C)cc2cc(-c3ccc([C@H]4C[C@@H]4C(N)=O)cc3F)cn12	6.46
C[C@@H]1c2ccccc2CCN1C(=O)c1cc2cc(-c3ccc(N4CC[C@H](C(=O)O)C4)cc3F)nn2c(C2CC2)n1	6.25
C[C@@H]1c2ccccc2CCN1C(=O)c1cc(C2CC2)n2cc(-c3ccc(C4C[C@H]4C(=O)O)cc3F)nc2n1 (relative stereo)	6.98
C[C@@H]1c2ccccc2CCN1C(=O)c1cc(C2CC2)n2c(F)c(-c3ccc([C@@H]4C[C@H]4C(=O)O)cc3F)nc2n1 (mixture of isomers)	6.95

Alright, here's another compound for you.
IN: Name the recorded pEC50 for C[C@@H]1c2ccccc2CCN1C(=O)c1cc(C2CC2)n2nc(-c3ccc(N4CC[C@H](C(N)=O)C4)cc3F)cc2c1 .
OUT: 7.27

###

# Tested on: rgRSV224 virus
# RUN_DESCRIPTION: Antiviral activity: rgRSV224 (GFP) replication in HeLa cells
# CONDITION_CONTEXT: human respiratory syncytial virus, 72 h, read-out: RSV HELA EC50
VALUE_KIND: pEC50
Give only the number. pEC50 is defined as minus log10 of concentration in molar units.

Past entries and their recorded results:
C[C@@H]1c2ccccc2CCN1C(=O)c1cc(C2CC2)n2nc(-c3ccc(C4C[C@H]4C(N)=O)cc3F)nc2c1 (relative stereo)	6.75
C[C@@H]1c2ccccc2CCN1C(=O)c1cc(C2CC2)n2nc(-c3ccc(N4CC[C@H](C(=O)O)C4)cc3F)nc2c1	7.00
C[C@@H]1c2ccccc2CCN1C(=O)c1cc(C2CC2)n2nc(-c3ccc(N4CC[C@H](C(N)=O)C4)cc3F)nc2c1	6.99

Alright, here's another molecule for you.
IN: Name the recorded pEC50 for CCc1cc(C(=O)N2CCc3ccccc3[C@H]2C)c(OC)c2cc(-c3ccc(C4C[C@H]4C(=O)O)cc3F)nn12 (relative stereo) .
OUT: 5.77
